Target: High affinity nerve growth factor receptor (Homo sapiens); note: in the data inactive means no Kd found up to 30 µM
Sequence (P04629 whole entry): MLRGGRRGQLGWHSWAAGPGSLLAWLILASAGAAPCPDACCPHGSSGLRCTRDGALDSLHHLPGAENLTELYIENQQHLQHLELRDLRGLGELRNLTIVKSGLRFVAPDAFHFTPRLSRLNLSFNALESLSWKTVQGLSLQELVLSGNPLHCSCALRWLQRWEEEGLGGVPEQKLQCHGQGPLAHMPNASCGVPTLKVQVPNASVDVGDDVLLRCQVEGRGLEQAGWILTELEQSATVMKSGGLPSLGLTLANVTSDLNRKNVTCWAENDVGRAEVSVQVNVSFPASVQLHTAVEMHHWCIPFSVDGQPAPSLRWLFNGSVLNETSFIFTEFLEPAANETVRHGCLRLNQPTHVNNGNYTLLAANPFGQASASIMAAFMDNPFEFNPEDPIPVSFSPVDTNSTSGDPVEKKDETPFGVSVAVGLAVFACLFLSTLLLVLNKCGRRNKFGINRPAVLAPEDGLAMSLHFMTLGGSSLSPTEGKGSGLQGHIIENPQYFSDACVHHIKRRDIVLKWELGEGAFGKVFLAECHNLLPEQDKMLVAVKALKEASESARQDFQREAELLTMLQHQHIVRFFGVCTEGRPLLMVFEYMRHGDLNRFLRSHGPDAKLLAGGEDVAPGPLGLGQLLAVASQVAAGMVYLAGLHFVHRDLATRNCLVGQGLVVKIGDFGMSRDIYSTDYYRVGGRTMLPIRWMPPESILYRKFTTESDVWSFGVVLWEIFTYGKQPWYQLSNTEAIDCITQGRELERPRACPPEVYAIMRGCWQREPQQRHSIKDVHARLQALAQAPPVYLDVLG
Counter-ions that a name gives are not always drawn. Active and inactive are the calls of the source.
Metric name: Kd

Value sought for every listed compound: Kd.
1. CO[C@H]1C[C@@H]2CC[C@@H](C)[C@@](O)(O2)C(=O)C(=O)N2CCCC[C@H]2C(=O)O[C@H]([C@H](C)C[C@@H]2CC[C@@H](OC(=O)C(C)(CO)CO)[C@H](OC)C2)CC(=O)[C@H](C)/C=C(\C)[C@@H](O)[C@@H](OC)C(=O)[C@H](C)C[C@H](C)/C=C/C=C/C=C/1C
2. CCS(=O)(=O)N1CCN(c2ccc(Nc3ncc(C(N)=O)c(NC4CC4)n3)cc2)CC1 [Cerdulatinib Hydrochloride]
3. COc1cc([C@@H]2c3cc4c(cc3[C@H](O)[C@H]3COC(=O)[C@@H]23)OCO4)cc(OC)c1OC

> 30 µM (inactive)
> 30 µM (inactive)
> 30 µM (inactive)

Value sought for every listed compound: Kd.
1. CN1CCN(CCOc2cc(OC3CCOCC3)c3c(Nc4c(Cl)ccc5c4OCO5)ncnc3c2)CC1
2. Nc1ncnc2c1c(-c1cccc(OCc3ccccc3)c1)cn2[C@H]1C[C@@H](CN2CCC2)C1

["> 30 µM (inactive)", "> 30 µM (inactive)"]

---

Calls of active or inactive are those of the source.
// AP2-associated protein kinase 1 (Homo sapiens) Kd records

Some compounds with known Kd results, for comparison:
Requested read-out Kd, target or system AP2-associated protein kinase 1 (Homo sapiens), entry Cc1nc2cc(-c3nn(C(C)C)c4ncnc(N)c34)ccc2o1; note: in the data inactive means no Kd found up to 30 µM
> 30 µM (inactive)

Same question for CO[C@H]1C[C@@H]2CC[C@@H](C)[C@@](O)(O2)C(=O)C(=O)N2CCCC[C@H]2C(=O)O[C@H]([C@H](C)C[C@@H]2CC[C@@H](O)[C@H](OC)C2)CC(=O)[C@H](C)/C=C(\C)[C@@H](O)[C@@H](OC)C(=O)[C@H](C)C[C@H](C)/C=C/C=C/C=C/1C [SIROLIMUS] please.
> 30 µM (inactive)

Same question for Cn1cc(-c2cnn3c(N)c(Br)c([C@@H]4CCCNC4)nc23)cn1 [SCH-900776] please.
> 30 µM (inactive)

Value sought for every listed compound: Kd.
1. O=C(Cc1ccc(-c2ccc(OCCN3CCOCC3)cc2)cn1)NCc1ccccc1 [TIRBANIBULIN]
2. O=C(Nc1c[nH]nc1-c1nc2cc(CN3CCOCC3)ccc2[nH]1)NC1CC1 [AT-9283]
3. O=c1[nH]ccc2cc(OC3CCNCC3)ccc12 [SAR-407899 FREE BASE]

1: > 30 µM (inactive); 2: 0.017 µM (active); 3: 0.012 µM (active)

Value sought for every listed compound: Kd.
1. COc1cc2ncnc(Oc3cccc(NC(=O)Nc4cc(C(C)(C)C(F)(F)F)on4)c3)c2cc1OC [CEP-32496]
2. CN1C/C=C/CCOc2cccc(c2)-c2ccnc(n2)Nc2cccc(c2)C1 [ZOTIRACICLIB]

1: > 30 µM (inactive); 2: > 30 µM (inactive)

---

Structures can show the parent of a compound that is named as a salt. Activity calls are given as the source filed them.
// Deoxycytidine kinase (Homo sapiens) Kd records

Some compounds with known Kd results, for comparison:
Requested read-out Kd, target or system Deoxycytidine kinase (Homo sapiens), entry CC(=O)NCC(=O)N1[C@@H]2CC[C@H]1c1ccc(Nc3ncc(C(F)(F)F)c(NC4CCC4)n3)cc12; note: in the data inactive means no Kd found up to 30 µM
> 30 µM (inactive)

Same question for Cc1cc(Nc2ncc(Cl)c(Nc3ccccc3S(=O)(=O)C(C)C)n2)c(OC(C)C)cc1C1CCNCC1 please.
> 30 µM (inactive)

Same question for O=C(NOCCO)c1cc(CN2OCCCC2=O)c(F)c(F)c1Nc1ccc(I)cc1F please.
> 30 µM (inactive)

Same question for Cc1nc(NC(=O)N2CCC[C@H]2C(N)=O)sc1-c1ccnc(C(C)(C)C(F)(F)F)c1 please.
> 30 µM (inactive)

Same question for CCS(=O)(=O)N1CCN(c2ccc(Nc3ncc(C(N)=O)c(NC4CC4)n3)cc2)CC1 [Cerdulatinib Hydrochloride] please.
> 30 µM (inactive)

Value sought for every listed compound: Kd.
1. Cc1csc(-c2nnc(Nc3ccc(Oc4ncccc4-c4ccnc(N)n4)cc3)c3ccccc23)c1
2. Nc1ncnc2c1c(-c1cccc(OCc3ccccc3)c1)cn2[C@H]1C[C@@H](CN2CCC2)C1
3. CNC(=O)c1nn(C)c2c1C(C)(C)Cc1cnc(Nc3ccc(N4CCN(C)CC4)cc3)nc1-2

> 30 µM (inactive)
> 30 µM (inactive)
> 30 µM (inactive)

---

Assignment: determine reported Kd for the given molecules.
Target: EKC/KEOPS complex subunit TP53RK (Homo sapiens); note: in the data inactive means no Kd found up to 30 µM
Sequence (Q96S44 whole entry): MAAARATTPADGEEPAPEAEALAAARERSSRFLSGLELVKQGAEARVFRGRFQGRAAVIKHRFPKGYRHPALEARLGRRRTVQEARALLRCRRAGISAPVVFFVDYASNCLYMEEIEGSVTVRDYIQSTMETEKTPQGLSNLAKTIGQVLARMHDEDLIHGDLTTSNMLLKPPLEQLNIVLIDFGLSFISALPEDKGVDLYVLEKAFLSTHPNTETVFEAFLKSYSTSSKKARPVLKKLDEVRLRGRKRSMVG
Calls of active or inactive are those of the source.

Some molecules with known Kd results, for comparison:
Which Kd value belongs to CC(C)(C)c1nc(-c2cccc(NS(=O)(=O)c3c(F)cccc3F)c2F)c(-c2ccnc(N)n2)s1 [DABRAFENIB] ?
> 30 µM (inactive)

Same question for C[C@H]1CNCCCN1S(=O)(=O)c1cccc2cncc(F)c12 please.
> 30 µM (inactive)

Value sought for every listed molecule: Kd.
1. Cn1ncc(Cl)c1-c1cc(C(=O)N[C@H](CN)Cc2ccc(F)c(F)c2)oc1Cl [UPROSERTIB]
2. COc1ccc(S(=O)(=O)N(C(C)=O)c2ccccc2/C=C/c2cc[n+]([O-])cc2)cc1 [HMN-214]

1: > 30 µM (inactive); 2: > 30 µM (inactive)

---

Target: Activated CDC42 kinase 1 (Homo sapiens, UniProt Q07912); note: in the data inactive means no Kd found up to 30 µM
Sequence (Q07912 whole entry): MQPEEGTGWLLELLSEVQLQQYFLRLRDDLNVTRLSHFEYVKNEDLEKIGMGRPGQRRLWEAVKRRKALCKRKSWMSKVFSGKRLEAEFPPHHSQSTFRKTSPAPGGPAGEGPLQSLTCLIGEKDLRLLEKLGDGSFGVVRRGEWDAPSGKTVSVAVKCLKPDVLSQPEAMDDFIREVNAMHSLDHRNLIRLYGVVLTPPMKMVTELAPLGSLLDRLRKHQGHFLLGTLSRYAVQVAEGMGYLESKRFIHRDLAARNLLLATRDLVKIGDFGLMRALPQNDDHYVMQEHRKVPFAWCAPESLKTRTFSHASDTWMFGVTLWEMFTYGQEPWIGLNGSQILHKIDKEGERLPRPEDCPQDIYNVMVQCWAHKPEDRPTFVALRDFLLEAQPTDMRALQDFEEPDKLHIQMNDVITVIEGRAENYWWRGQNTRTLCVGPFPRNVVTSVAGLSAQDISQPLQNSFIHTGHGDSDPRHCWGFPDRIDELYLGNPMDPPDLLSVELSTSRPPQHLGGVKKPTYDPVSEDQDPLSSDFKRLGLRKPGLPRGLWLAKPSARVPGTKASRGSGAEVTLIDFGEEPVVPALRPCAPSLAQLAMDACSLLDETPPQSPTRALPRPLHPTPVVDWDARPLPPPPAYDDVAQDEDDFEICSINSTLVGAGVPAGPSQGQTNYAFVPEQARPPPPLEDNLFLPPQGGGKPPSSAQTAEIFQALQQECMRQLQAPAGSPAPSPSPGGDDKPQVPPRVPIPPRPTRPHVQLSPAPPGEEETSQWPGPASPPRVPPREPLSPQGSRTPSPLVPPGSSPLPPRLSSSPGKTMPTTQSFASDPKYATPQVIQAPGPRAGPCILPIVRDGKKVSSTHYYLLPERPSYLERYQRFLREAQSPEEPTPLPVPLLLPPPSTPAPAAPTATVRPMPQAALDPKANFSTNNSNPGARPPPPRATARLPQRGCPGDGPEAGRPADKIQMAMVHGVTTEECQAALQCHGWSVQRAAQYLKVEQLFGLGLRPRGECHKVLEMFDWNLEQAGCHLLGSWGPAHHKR
The source made the active and inactive calls.
Select the correct class. Options are active, inactive and nothing else.

Look up the recorded call for CO[C@H]1C[C@@H]2CC[C@@H](C)[C@@](O)(O2)C(=O)C(=O)N2CCCC[C@H]2C(=O)O[C@H]([C@H](C)C[C@@H]2CC[C@@H](O)[C@H](OC)C2)CC(=O)[C@H](C)/C=C(\C)[C@@H](O)[C@@H](OC)C(=O)[C@H](C)C[C@H](C)/C=C/C=C/C=C/1C [SIROLIMUS] in this test.
inactive

Same question for N#CC1(c2ccc(NC(=O)c3cccnc3NCc3ccncc3)cc2)CCCC1 [RIVOCERANIB] please.
inactive

Same question for Cn1cc(-c2cnn3c(N)c(Br)c([C@@H]4CCCNC4)nc23)cn1 [SCH-900776] please.
inactive

Same question for COc1cc([C@@H]2c3cc4c(cc3[C@H](O)[C@H]3COC(=O)[C@@H]23)OCO4)cc(OC)c1OC [AXL-1717] please.
inactive

Same question for O=C1NC(=O)[C@@H](c2cn3c4c(cccc24)CCC3)[C@@H]1c1c[nH]c2ccccc12 [TIVANTINIB] please.
inactive

Same question for CC(C)c1cc(CNc2nc(Nc3cc(C4CC4)[nH]n3)cc(N3CCN(C)CC3)n2)on1 [XL-228] please.
active

Same question for CNC(=O)c1nn(C)c2c1C(C)(C)Cc1cnc(Nc3ccc(N4CCN(C)CC4)cc3)nc1-2 [MILCICLIB] please.
active

Same question for FC(F)(F)c1ccc(/C=C/c2nc(COc3ccc(CCCCn4ccnn4)cc3)co2)cc1 [MUBRITINIB] please.
inactive

Same question for Cc1csc(-c2nnc(Nc3ccc(Oc4ncccc4-c4ccnc(N)n4)cc3)c3ccccc23)c1 [AMG-900] please.
inactive

Same question for CCCCCCCCCCCCCCCCCCOP(=O)([O-])OC1CC[N+](C)(C)CC1 [PERIFOSINE] please.
inactive

Same question for Cc1cc(Nc2ncc(Cl)c(Nc3ccccc3S(=O)(=O)C(C)C)n2)c(OC(C)C)cc1C1CCNCC1 [CERITINIB] please.
active

Same question for Cc1nc(NC(=O)N2CCC[C@H]2C(N)=O)sc1-c1ccnc(C(C)(C)C(F)(F)F)c1 [ALPELISIB] please.
inactive

Same question for C[C@@H](N)c1ccc(C(=O)Nc2ccnc3[nH]ccc23)cc1 [Y-39983] please.
inactive

Same question for NC1(c2ccc(-c3nc4ccn5c(=O)[nH]nc5c4cc3-c3ccccc3)cc2)CCC1 [MK-2206] please.
inactive

Same question for C=CC(=O)N1CCC[C@H](n2c(=O)n(-c3ccc(Oc4ccccc4)cc3)c3c(N)ncnc32)C1 please.
inactive

Same question for Cc1nc2cc(-c3nn(C(C)C)c4ncnc(N)c34)ccc2o1 please.
inactive

Same question for CCOc1cc2ncc(C#N)c(Nc3ccc(F)c(Cl)c3)c2cc1NC(=O)/C=C/CN(C)C [PELITINIB] please.
inactive

Same question for CCNC(=O)C#Cc1ccc2c(c1)NC(=O)/C2=C(\Nc1ccc(CN(C)C)cc1)c1ccccc1 please.
active

Same question for Cc1cccc(-c2nn3c(c2-c2ccnc4ccc(C(N)=O)cc24)CCC3)n1 [GALUNISERTIB] please.
inactive
